# Tested on: C. elegans L3 larvae
# Test details: C. elegans L3 larvae abnormal locomotory behaviour on solid agar
# Condition: 3.75 uM; 6 h exposure; solid agar MYOB + E. coli OP50; mean of 4 replicates
For each of the compounds below, state its % C. elegans L3 larvae any phene 6 h (conc.).
Could you give me the number in %? Just the number is fine.

Ask: Look up % C. elegans L3 larvae any phene 6 h (conc.) for this compound: `O=C(C1CCCCC1)N1CCN(c2ccc([N+](=O)[O-])cc2)CC1`
Reply: 0.8

Ask: Look up % C. elegans L3 larvae any phene 6 h (conc.) for this compound: `O=C(C1CCC1)N1CCN(c2ccc(F)cc2)CC1`
Reply: 0.0

Ask: Look up % C. elegans L3 larvae any phene 6 h (conc.) for this compound: `O=[N+]([O-])c1ccc(CN2CCN(C3CCCC3)CC2)cc1`
Reply: 0.8

Ask: Look up % C. elegans L3 larvae any phene 6 h (conc.) for this compound: `FC(F)(F)c1cccc(N2CCN(CC3CCCCC3)CC2)c1`
Reply: 0.0

Ask: Look up % C. elegans L3 larvae any phene 6 h (conc.) for this compound: `Cc1cc(N2CCN(CC3CCCCC3)CC2)ccc1[N+](=O)[O-]`
Reply: 0.0

Ask: Look up % C. elegans L3 larvae any phene 6 h (conc.) for this compound: `c1cc(N2CCN(CC3CCCCC3)CC2)ccn1`
Reply: 0.0

Ask: Look up % C. elegans L3 larvae any phene 6 h (conc.) for this compound: CC1CCC(N2CCN(c3cccc(Cl)c3)CC2)C1 (centres unmarked)
Reply: 11.7

Ask: Look up % C. elegans L3 larvae any phene 6 h (conc.) for this compound: `O=C(C1CCCC1)N1CCN(c2ccc([N+](=O)[O-])cc2)CC1`
Reply: 0.0

Ask: Look up % C. elegans L3 larvae any phene 6 h (conc.) for this compound: `FC(F)(F)c1cccc(N2CCN(CC3CCCC3)CC2)c1`
Reply: 0.8

Ask: Look up % C. elegans L3 larvae any phene 6 h (conc.) for this compound: `CCN1CCN(CC2CCCCC2)CC1`
Reply: 0.0

Ask: Look up % C. elegans L3 larvae any phene 6 h (conc.) for this compound: `FC(F)(F)c1cccc(N2CCN(C3CCCCCC3)CC2)c1`
Reply: 0.0

---

# Tested on: C. elegans L3 larvae
# Test details: C. elegans L3 larvae abnormal locomotory behaviour on solid agar
# Condition: 60 uM; 24 h exposure; solid agar MYOB + E. coli OP50; mean of 4 replicates
Quantity kind: % C. elegans L3 larvae any phene 24 h (conc.)
Reply with the number, then its unit.

Ask: Look up % C. elegans L3 larvae any phene 24 h (conc.) for this compound: `Cc1cc(N2CCN(CC3CCCCC3)CC2)ccc1[N+](=O)[O-]`
Reply: 9.2%

Ask: Look up % C. elegans L3 larvae any phene 24 h (conc.) for this compound: `CCN1CCN(CC2CCCCC2)CC1`
Reply: 0.0%

Ask: Look up % C. elegans L3 larvae any phene 24 h (conc.) for this compound: `FC(F)(F)c1cccc(N2CCN(C3CCCCCC3)CC2)c1`
Reply: 62.5%

Ask: Look up % C. elegans L3 larvae any phene 24 h (conc.) for this compound: `FC(F)(F)c1cccc(N2CCN(CC3CCCC3)CC2)c1`
Reply: 80.8%

Ask: Look up % C. elegans L3 larvae any phene 24 h (conc.) for this compound: Cc1ccc(N2CCN(CC3CC4C=CC3C4)CC2)cc1 (stereo not drawn)
Reply: 100.0%

Ask: Look up % C. elegans L3 larvae any phene 24 h (conc.) for this compound: `FC(F)(F)c1cccc(N2CCN(C3CCCCCCC3)CC2)c1`
Reply: 5.0%

---

# Tested on: C. elegans L3 larvae
# Test details: C. elegans L3 larvae abnormal locomotory behaviour on solid agar
# Condition: 60 uM; 24 h exposure; solid agar MYOB + E. coli OP50; mean of 4 replicates
For each of the compounds below, state its % C. elegans L3 larvae any phene 24 h (conc.).
Could you give me the number in %? Just the number is fine.

Ask: Look up % C. elegans L3 larvae any phene 24 h (conc.) for this compound: CC1CCC(N2CCN(c3cccc(Cl)c3)CC2)C1 (stereo not shown)
Reply: 66.7

Ask: Look up % C. elegans L3 larvae any phene 24 h (conc.) for this compound: `Cc1cc([N+](=O)[O-])ccc1N1CCN(CC2CCCCC2)CC1`
Reply: 0.0

Ask: Look up % C. elegans L3 larvae any phene 24 h (conc.) for this compound: `FC(F)(F)c1cccc(N2CCN(CC3CCCCC3)CC2)c1`
Reply: 1.7

Ask: Look up % C. elegans L3 larvae any phene 24 h (conc.) for this compound: `Fc1ccccc1N1CCN(C2CCCCCC2)CC1`
Reply: 9.2

Ask: Look up % C. elegans L3 larvae any phene 24 h (conc.) for this compound: O[C@@H]1CCCC[C@H]1N1CCC(c2ccccc2)CC1 (racemic) [vesamicol, reference compound]
Reply: 0.0

Ask: Look up % C. elegans L3 larvae any phene 24 h (conc.) for this compound: `c1cc(N2CCN(CC3CCCCC3)CC2)ccn1`
Reply: 0.0

Ask: Look up % C. elegans L3 larvae any phene 24 h (conc.) for this compound: `O=C(C1CCCC1)N1CCN(c2ccc([N+](=O)[O-])cc2)CC1`
Reply: 0.0

Ask: Look up % C. elegans L3 larvae any phene 24 h (conc.) for this compound: FC(F)(F)c1cccc(N2CCN(CC3CC4C=CC3C4)CC2)c1 (stereo not shown)
Reply: 92.5

Ask: Look up % C. elegans L3 larvae any phene 24 h (conc.) for this compound: `O=C(c1ccc([N+](=O)[O-])cc1)N1CCN(C2CCCC2)CC1`
Reply: 0.0

Ask: Look up % C. elegans L3 larvae any phene 24 h (conc.) for this compound: `O=[N+]([O-])c1cccc(CN2CCN(C3CCCCC3)CC2)c1`
Reply: 0.0

Ask: Look up % C. elegans L3 larvae any phene 24 h (conc.) for this compound: `c1cc(N2CCN(CC3CCC3)CC2)ccn1`
Reply: 1.7

Ask: Look up % C. elegans L3 larvae any phene 24 h (conc.) for this compound: `O=C(C1CCCCC1)N1CCN(c2ccc([N+](=O)[O-])cc2)CC1`
Reply: 0.0

Ask: Look up % C. elegans L3 larvae any phene 24 h (conc.) for this compound: Cc1ccc(N2CCN(C3CCC(C)C3)CC2)cc1 (stereo not shown)
Reply: 100.0

Ask: Look up % C. elegans L3 larvae any phene 24 h (conc.) for this compound: `O=C(C1CCC1)N1CCN(c2ccc(F)cc2)CC1`
Reply: 0.0

Ask: Look up % C. elegans L3 larvae any phene 24 h (conc.) for this compound: Cc1ccc(N2CCN(CC3CC=CCC3)CC2)cc1 (stereo not shown)
Reply: 99.2

Ask: Look up % C. elegans L3 larvae any phene 24 h (conc.) for this compound: `O=[N+]([O-])c1ccc(CN2CCN(C3CCCC3)CC2)cc1`
Reply: 0.0

---

For each of the compounds below, state its % C. elegans L3 larvae any phene 24 h (conc.).
# Tested on: C. elegans L3 larvae
# Test details: C. elegans L3 larvae abnormal locomotory behaviour on solid agar
# Condition: 15 uM; 24 h exposure; solid agar MYOB + E. coli OP50; mean of 4 replicates
Could you give me the number in %? Just the number is fine.

Ask: Look up % C. elegans L3 larvae any phene 24 h (conc.) for this compound: Cc1ccc(N2CCN(C3CCC(C)C3)CC2)cc1 (stereo not shown)
Reply: 20.0

Ask: Look up % C. elegans L3 larvae any phene 24 h (conc.) for this compound: `O=[N+]([O-])c1ccc(CN2CCN(C3CCCC3)CC2)cc1`
Reply: 0.0

Ask: Look up % C. elegans L3 larvae any phene 24 h (conc.) for this compound: `CCN1CCN(CC2CCCCC2)CC1`
Reply: 0.0

Ask: Look up % C. elegans L3 larvae any phene 24 h (conc.) for this compound: O[C@@H]1CCCC[C@H]1N1CCC(c2ccccc2)CC1 (racemic) [vesamicol, reference compound]
Reply: 0.0

Ask: Look up % C. elegans L3 larvae any phene 24 h (conc.) for this compound: `O=C(c1ccc([N+](=O)[O-])cc1)N1CCN(C2CCCC2)CC1`
Reply: 0.0

Ask: Look up % C. elegans L3 larvae any phene 24 h (conc.) for this compound: `Cc1cc([N+](=O)[O-])ccc1N1CCN(CC2CCCCC2)CC1`
Reply: 0.0

Ask: Look up % C. elegans L3 larvae any phene 24 h (conc.) for this compound: `c1cc(N2CCN(CC3CCCCC3)CC2)ccn1`
Reply: 0.0

Ask: Look up % C. elegans L3 larvae any phene 24 h (conc.) for this compound: `FC(F)(F)c1cccc(N2CCN(CC3CCCCC3)CC2)c1`
Reply: 0.0

Ask: Look up % C. elegans L3 larvae any phene 24 h (conc.) for this compound: `FC(F)(F)c1cccc(N2CCN(C3CCCCCCC3)CC2)c1`
Reply: 0.0

Ask: Look up % C. elegans L3 larvae any phene 24 h (conc.) for this compound: `O=C(C1CCCC1)N1CCN(c2ccc([N+](=O)[O-])cc2)CC1`
Reply: 0.0

Ask: Look up % C. elegans L3 larvae any phene 24 h (conc.) for this compound: `FC(F)(F)c1cccc(N2CCN(C3CCCCCC3)CC2)c1`
Reply: 25.0

Ask: Look up % C. elegans L3 larvae any phene 24 h (conc.) for this compound: `O=C(C1CCC1)N1CCN(c2ccc(F)cc2)CC1`
Reply: 0.0

Ask: Look up % C. elegans L3 larvae any phene 24 h (conc.) for this compound: `Cc1cc(N2CCN(CC3CCCCC3)CC2)ccc1[N+](=O)[O-]`
Reply: 0.0

Ask: Look up % C. elegans L3 larvae any phene 24 h (conc.) for this compound: `O=C(C1CCCCC1)N1CCN(c2ccc([N+](=O)[O-])cc2)CC1`
Reply: 0.0

Ask: Look up % C. elegans L3 larvae any phene 24 h (conc.) for this compound: `Fc1ccccc1N1CCN(C2CCCCCC2)CC1`
Reply: 0.0

Ask: Look up % C. elegans L3 larvae any phene 24 h (conc.) for this compound: `O=[N+]([O-])c1cccc(CN2CCN(C3CCCCC3)CC2)c1`
Reply: 0.0

Ask: Look up % C. elegans L3 larvae any phene 24 h (conc.) for this compound: Cc1ccc(N2CCN(CC3CC4C=CC3C4)CC2)cc1 (stereo not shown)
Reply: 10.0

Ask: Look up % C. elegans L3 larvae any phene 24 h (conc.) for this compound: `FC(F)(F)c1cccc(N2CCN(CC3CCCC3)CC2)c1`
Reply: 8.3

Ask: Look up % C. elegans L3 larvae any phene 24 h (conc.) for this compound: `c1cc(N2CCN(CC3CCC3)CC2)ccn1`
Reply: 0.0

Ask: Look up % C. elegans L3 larvae any phene 24 h (conc.) for this compound: Cc1ccc(N2CCN(CC3CC=CCC3)CC2)cc1 (stereo not shown)
Reply: 5.0

Ask: Look up % C. elegans L3 larvae any phene 24 h (conc.) for this compound: CC1CCC(N2CCN(c3cccc(Cl)c3)CC2)C1 (stereo not shown)
Reply: 0.0

Ask: Look up % C. elegans L3 larvae any phene 24 h (conc.) for this compound: FC(F)(F)c1cccc(N2CCN(CC3CC4C=CC3C4)CC2)c1 (stereo not shown)
Reply: 52.5
